Reported z-score of subpopulation abundance values follow for various compounds
Tested on: Saccharomyces cerevisiae BY4741 SeMeCo community
Test: z-score of subpopulation abundance vs DMSO median, subpopulation auxotrophic for LU; higher = larger share of this subpopulation than in DMSO controls
Details: 10 µM; 24 h; SM minimal medium; subpopulation (auxotrophy): LU
Structures can show the parent of a compound that is named as a salt.

compound	tested.on	z-score of subpopulation abundance
CC[C@@]1(O)C(=O)OCc2c1cc1n(c2=O)Cc2cc3cc(O)ccc3nc2-1 [Hydroxy Camptothecine]	Saccharomyces cerevisiae BY4741 SeMeCo community	-3.85
COc1cc([C@@H]2c3cc4c(cc3[C@@H](O[C@@H]3O[C@@H]5CO[C@@H](C)O[C@H]5[C@H](O)[C@H]3O)[C@H]3COC(=O)[C@H]23)OCO4)cc(OC)c1O [Etoposide]	Saccharomyces cerevisiae BY4741 SeMeCo community	0.39
NC(=O)N1c2ccccc2C=Cc2ccccc21 [Carbamazepine]	Saccharomyces cerevisiae BY4741 SeMeCo community	-0.08
O=C1CN(/N=C/c2ccc([N+](=O)[O-])o2)C(=O)N1	Saccharomyces cerevisiae BY4741 SeMeCo community	-0.11
CN1CCN(CCCN2c3ccccc3Sc3ccc(Cl)cc32)CC1 [Prochlorperazine dimaleate salt]	Saccharomyces cerevisiae BY4741 SeMeCo community	-0.07
Cc1cc(-n2c(=O)[nH]c(=O)n(C)c2=O)ccc1Oc1ccc(SC(F)(F)F)cc1	Saccharomyces cerevisiae BY4741 SeMeCo community	-0.65
C=CC(C)(O)CCC=C(C)C (stereo not drawn)	Saccharomyces cerevisiae BY4741 SeMeCo community	0.53
CC1(C)S[C@@H]2[C@H](NC(=O)Cc3ccccc3)C(=O)N2[C@H]1C(=O)O [Benzylpenicillin potassium]	Saccharomyces cerevisiae BY4741 SeMeCo community	0.51

----------
Test system: Saccharomyces cerevisiae BY4741 SeMeCo community
Assay: z-score of subpopulation abundance vs DMSO median, subpopulation auxotrophic for HU; higher = larger share of this subpopulation than in DMSO controls
Conditions: 10 µM; 24 h; SM minimal medium; subpopulation (auxotrophy): HU
Where a name gives a salt, the structure may show the parent alone.
Hi, to clarify the labels: Condition met covers z-score of subpopulation abundance from -0.5 upward, Condition not met covers anything below -0.5.

compound	qualitative.label
CC1(C)S[C@@H]2[C@H](NC(=O)[C@H](NC(=O)N3CCN(S(C)(=O)=O)C3=O)c3ccccc3)C(=O)N2[C@H]1C(=O)O [Mezlocillin Sodium]	Condition met
CO[C@@]1(NC(=O)Cc2cccs2)C(=O)N2C(C(=O)O)=C(COC(N)=O)CS[C@@H]21 [Cefoxitin sodium]	Condition not met
CC1=C[C@H]2C(=O)O[C@H]3C[C@@H](C/C=C(\C)C[C@@H](C)/C=C/C=C4\CO[C@H](/C1=N\O)[C@@]42O)O[C@@]1(CC[C@H](C)[C@@H](C)O1)C3.CC[C@H]1O[C@]2(CC[C@@H]1C)C[C@@H]1C[C@@H](C/C=C(\C)C[C@@H](C)/C=C/C=C3\CO[C@@H]4/C(=N\O)C(C)=C[C@@H](C(=O)O1)[C@]34O)O2	Condition met
CO[C@@H]1[C@H](OC(=O)/C=C/C=C/C=C/C=C/C(=O)O)CC[C@]2(CO2)[C@H]1[C@@]1(C)O[C@@H]1CC=C(C)C	Condition met
CN[C@@H]1[C@@H](O)[C@@H](O[C@@H]2[C@@H](O)[C@H](O[C@H]3O[C@H](CN)[C@@H](O)[C@H](O)[C@H]3O)[C@@H](N)C[C@H]2NC(=O)[C@@H](O)CN)OC[C@]1(C)O [Isepamicin Sulphate]	Condition met
CCOc1cc(N)c([N+](=O)[O-])cc1C(=O)NC1CCN(CC2CC=CCC2)CC1 (configuration not stated) [Cinitapride Hydrogen Tartrate]	Condition met
CC[C@H]1OC(=O)C[C@@H](O)[C@H](C)[C@@H](O[C@@H]2O[C@H](C)[C@@H](O[C@H]3C[C@@](C)(O)[C@@H](O)[C@H](C)O3)[C@H](N(C)C)[C@H]2O)[C@@H](CC=O)C[C@@H](C)C(=O)/C=C/C(C)=C/[C@@H]1CO[C@@H]1O[C@H](C)[C@@H](O)[C@@H](OC)[C@H]1OC	Condition met
CCC1(c2ccccc2)C(=O)NCNC1=O	Condition met
CC1(C)S[C@@H]2[C@H](NC(=O)[C@H](N)c3ccccc3)C(=O)N2[C@H]1C(=O)O [Ampicillin Trihydrate]	Condition met
C[C@@H](c1ncncc1F)[C@](O)(Cn1cncn1)c1ccc(F)cc1F	Condition met
CCOc1ccc(NC(C)=O)cc1	Condition met
CC(C)C(=O)Oc1ccc(CO)cc1[C@H](CCN(C(C)C)C(C)C)c1ccccc1 [Fesoterodine Fumarate]	Condition not met
O=C(O)CCC(=O)OC[C@@H](NC(=O)C(Cl)Cl)[C@H](O)c1ccc([N+](=O)[O-])cc1 [Chloramphenicol sodium succinate]	Condition not met
CO/N=C(\C(=O)N[C@@H]1C(=O)N2C(C(=O)O)=C(CSc3nc(=O)c(O)nn3C)CS[C@H]12)c1csc(N)n1 [Ceftriaxone Sodium Trihydrate]	Condition met
CO/N=C(\C(=O)N[C@@H]1C(=O)N2C(C(=O)O)=C(COC(N)=O)CS[C@H]12)c1ccco1 [Cefuroxime sodium]	Condition not met
CC[C@H](C)C(=O)O[C@H]1C[C@@H](C)C=C2C=C[C@H](C)[C@H](CC[C@@H]3C[C@@H](O)CC(=O)O3)[C@H]21	Condition met
Cn1cc(C(=O)[C@@H]2CCc3[nH]cnc3C2)c2ccccc21 [Ramosetron Hydrochloride]	Condition not met
CN(C)CCN1C(=O)c2cccc3cc(N)cc(c23)C1=O [Amonafide]	Condition not met
CCN(CC)CCOCCOC(=O)C1(c2ccccc2)CCCC1 [Pentoxyverine Citrate]	Condition not met
COc1cc2c(cc1OC)-c1cc3ccc(OC)c(OC)c3c[n+]1CC2	Condition not met
CO[C@@]1(NC(=O)C(C(=O)O)c2ccc(O)cc2)C(=O)N2C(C(=O)O)=C(CSc3nnnn3C)CO[C@@H]21 (some centres not stated) [Latamoxef sodium]	Condition met
C=CC1=C(C(=O)O)N2C(=O)[C@@H](NC(=O)/C(=N\OCC(=O)O)c3csc(N)n3)[C@H]2SC1	Condition met
COc1ccc(NS(=O)(=O)c2ccc(N)cc2)nn1	Condition met
Cc1ccccc1C(OCCN(C)C)c1ccccc1 (configuration not stated) [Orphenadrine Citrate]	Condition met
CC(=O)[O-].[K+] [Potassium acetate]	Condition met
O=C1Cc2cc(CCN3CCN(c4nsc5ccccc45)CC3)c(Cl)cc2N1 [Ziprasidone HCl]	Condition met
CC(C)N1CCN(c2ccc(OCC3COC(Cn4cncn4)(c4ccc(Cl)cc4Cl)O3)cc2)CC1 (configuration not stated)	Condition not met

----------
Tested on: Saccharomyces cerevisiae BY4741 SeMeCo community
Test: z-score of subpopulation abundance vs DMSO median, subpopulation auxotrophic for H; higher = larger share of this subpopulation than in DMSO controls
Conditions: 10 µM; 24 h; SM minimal medium; subpopulation (auxotrophy): H
Listed next: entries and their corresponding z-score of subpopulation abundance.
metric: z-score of subpopulation abundance

In [3]: df
Out[3]:
                                   molecule  reported_value
0  COc1ccc2c(c1)c(CC(=O)O)c(C)n2C(=O)c1ccc(Cl)cc1 [Indomethacin]           -0.68
1  Nc1nc2c(ncn2COC(CO)CO)c(=O)[nH]1 [Ganciclovir]           -0.43
2  C[C@](N)(Cc1ccc(O)c(O)c1)C(=O)O [Methyldopa]            0.34
3  CC1=CC[C@@](O)(C(C)C)CC1 [Terpinen-4-ol]           -0.04
4  OCCN1CCN(CCCN2c3ccccc3Sc3ccc(Cl)cc32)CC1 [Perphenazine]            0.04

----------
Test system: Saccharomyces cerevisiae BY4741 SeMeCo community
Test: z-score of subpopulation abundance vs DMSO median, subpopulation auxotrophic for HLM; higher = larger share of this subpopulation than in DMSO controls
Details: 10 µM; 24 h; SM minimal medium; subpopulation (auxotrophy): HLM
Counter-ions that a name gives are not always drawn.
Note to self: class = bucket of z-score of subpopulation abundance, per bin A (below -0.4), bin B (-0.4 to below 1), bin C (1 or more)

compound	qualitative.label
CCCCCOc1ccc(-c2ccc(-c3ccc(C(=O)N[C@H]4C[C@@H](O)[C@@H](O)NC(=O)[C@@H]5[C@@H](O)[C@@H](C)CN5C(=O)[C@H]([C@@H](C)O)NC(=O)[C@H]([C@H](O)[C@@H](O)c5ccc(O)cc5)NC(=O)[C@@H]5C[C@@H](O)CN5C(=O)[C@H]([C@@H](C)O)NC4=O)cc3)cc2)cc1	bin C
Nc1nc2c(ncn2COCCO)c(=O)[nH]1 [Aciclovir]	bin A
NC(=O)[C@@H]1CC[C@@H]2CN1C(=O)N2OS(=O)(=O)O [Avibactam sodium]	bin B
O=c1[nH]c2ccccc2n1CCN1CCN(c2cccc(C(F)(F)F)c2)CC1 [Flibanserin]	bin A
NC(=O)OCC(COC(N)=O)c1ccccc1 [Felbamate]	bin A
COc1ccnc(C[S+]([O-])c2nc3cc(-n4cccc4)ccc3[nH]2)c1C (stereo not given) [Ilaprazole sodium]	bin C
CC1(C)S[C@@H]2[C@H](NC(=O)[C@H](C(=O)O)c3ccsc3)C(=O)N2[C@H]1C(=O)O [Ticarcillin sodium]	bin C
CC1=C[C@H]2C(=O)O[C@H]3C[C@@H](C/C=C(\C)C[C@@H](C)/C=C/C=C4\CO[C@H](/C1=N\O)[C@@]42O)O[C@@]1(CC[C@H](C)[C@@H](C)O1)C3.CC[C@H]1O[C@]2(CC[C@@H]1C)C[C@@H]1C[C@@H](C/C=C(\C)C[C@@H](C)/C=C/C=C3\CO[C@@H]4/C(=N\O)C(C)=C[C@@H](C(=O)O1)[C@]34O)O2 [Milbemycin Oxime]	bin B
C=C[C@]1(C)C[C@@H](OC(=O)CS[C@@H]2C[C@H]3CC[C@@H](C2)N3C)[C@]2(C)[C@H](C)CC[C@]3(CCC(=O)[C@H]32)[C@@H](C)[C@@H]1O [Retapamulin]	bin A
NNc1nncc2ccccc12 [Hydralazine HCl]	bin B
Oc1c(I)cc(Cl)c2cccnc12 [Clioquinol]	bin C
C[C@H](NCc1ccc(OCc2cccc(F)c2)cc1)C(N)=O [Safinamide]	bin C
CC(=O)NS(=O)(=O)c1ccc(N)cc1 [Sulfacetamide Sodium]	bin B
